All values here come from the supplement of paper PMC10065799.

Consider the following sequences and their measured phosphorylation enrichment readings.
system: AncSZ; assay: phosphorylation enrichment, bacterial display (enrichment ratio); higher = better substrate or ligand; peptides without Tyr show the background;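 also: 11-residue human phosphosite peptides and single-mutation variants displayed on the E. coli surface, counted by deep sequencing, each peptide's frequency after selection divided by its frequency in the unselected input library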;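 also: frequency after pTyr selection over input frequency; kinase dosed for 20-30% of maximal phosphorylation in three min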
// keep it numeric: no unit symbol after the value

- residue-string: "ISITPYPAILH [IFT80_Y588]"
  assayed-target: "AncSZ"
  phosphorylation enrichment: 1.2
- residue-string: "TDGIAYEFRVI"
  assayed-target: "AncSZ"
  phosphorylation enrichment: 1.46
- residue-string: "TEQDPYNSIVR [MMUT_Y364_N366S]"
  assayed-target: "AncSZ"
  phosphorylation enrichment: 1.03
- residue-string: "SWDKRYCEAGC [ITGA2B_Y197_F202C]"
  assayed-target: "AncSZ"
  phosphorylation enrichment: 0.859
- residue-string: "RRGLLYDSDEE [MCM2_Y137]"
  assayed-target: "AncSZ"
  phosphorylation enrichment: 1.25
- residue-string: "GHNNVYISEHV [GRIN2A_Y1423_D1421N]"
  assayed-target: "AncSZ"
  phosphorylation enrichment: 0.734

Enquiry: Entry NPQKSYFILLY [WAS_Y83_R86L] has what phosphorylation enrichment?
Return: 0.958

Enquiry: Which phosphorylation enrichment value is on record for DKATEYIQYMR [MAX_Y70] ?
Return: 0.852

Enquiry: // returns reported phosphorylation enrichment for input SVGGCYEQLFV [MC4R_Y41_D37V]
Return: 1.51

Enquiry: Name the reported phosphorylation enrichment value associated with the sequence VDTGVYAVPPP [BCAR1_Y410_S407T]
Return: 2.39

Enquiry: Give the measured phosphorylation enrichment of KGLMPYGQPRP [SRRT_Y798_Q793K] .
Return: 0.444

Enquiry: Which measured phosphorylation enrichment value corresponds to KLKNAYEESLE [MYH7_Y1488] ?
Return: 0.982

Enquiry: Field request: phosphorylation enrichment | item: TNDRLYLRSLE [MTM1_Y71_Y68D]
Return: 0.881

Enquiry: Which phosphorylation enrichment is listed for WNDLDYVDSRR [GAA_Y407_M408V] ?
Return: 1.44

Enquiry: Which phosphorylation enrichment reading was recorded for the sequence KACKHYLTTRT [ZBTB5_Y118] ?
Return: 0.712

Enquiry: Name the recorded phosphorylation enrichment for GEVLVYVEDPA [FLNA_Y319] .
Return: 1.33

Enquiry: If you can, please state the reported phosphorylation enrichment value of SHLSAFPALEG [CD5_Y465_Y465F] .
Return: 0.553

Enquiry: Endpoint output: phosphorylation enrichment of QLHREYCLSPR [HJURP_Y445] . Value?
Return: 1.38

Enquiry: Find the recorded phosphorylation enrichment belonging to RTCSSYAIEKI [PARP15_Y520] and report it.
Return: 1.13
